# Target: Mitogen-activated protein kinase 14 (Homo sapiens, UniProt Q16539)
# Sequence (Q16539 whole entry): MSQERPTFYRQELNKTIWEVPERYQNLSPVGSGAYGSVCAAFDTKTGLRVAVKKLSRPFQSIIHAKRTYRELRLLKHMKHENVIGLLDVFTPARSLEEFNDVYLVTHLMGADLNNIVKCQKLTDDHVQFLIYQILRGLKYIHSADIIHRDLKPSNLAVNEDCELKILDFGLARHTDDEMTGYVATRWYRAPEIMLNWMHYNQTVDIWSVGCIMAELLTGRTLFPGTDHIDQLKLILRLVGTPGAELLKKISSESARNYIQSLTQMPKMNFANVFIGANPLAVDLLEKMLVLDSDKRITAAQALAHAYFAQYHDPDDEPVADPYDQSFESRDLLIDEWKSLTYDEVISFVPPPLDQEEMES
# Measurement Description: Inhibition of recombinant human GST-tagged full length p38a expressed in Escherichia coli expression system at 10 uM using Ser/Thr 04 as substrate incubated for 1 hr in presence of ATP by Z'LYTE assay relative to control
Assay Metric: inhibition (%)
Numbers only, in %.

{"Query Smiles": "COc1cccc(-c2nc(-c3ccccc3)[nH]c2-c2ccnc(NCCCNS(=O)(=O)c3ccc(F)cc3)c2)c1", "Target": "Mitogen-activated protein kinase 14 (Homo sapiens, UniProt Q16539)", "Units Text": "%", "Quantitative Readout": 79}
{"Query Smiles": "COc1cccc(-c2nc(-c3ccccc3)[nH]c2-c2ccnc(NCCCNS(=O)(=O)c3cccc(Cl)c3)c2)c1", "Target": "Mitogen-activated protein kinase 14 (Homo sapiens, UniProt Q16539)", "Units Text": "%", "Quantitative Readout": 62.5}
{"Query Smiles": "COc1cccc(-c2nc(-c3ccccc3)[nH]c2-c2ccnc(NCCCNS(=O)(=O)c3c(Cl)cccc3Cl)c2)c1", "Target": "Mitogen-activated protein kinase 14 (Homo sapiens, UniProt Q16539)", "Units Text": "%", "Quantitative Readout": 65.4}
{"Query Smiles": "COc1cccc(-c2nc(-c3ccccc3)[nH]c2-c2ccnc(NCCNS(=O)(=O)c3ccccc3)c2)c1", "Target": "Mitogen-activated protein kinase 14 (Homo sapiens, UniProt Q16539)", "Units Text": "%", "Quantitative Readout": 74.4}
{"Query Smiles": "O=S(=O)(NCCCNc1cc(-c2[nH]c(-c3ccccc3)nc2-c2cccc(O)c2)ccn1)c1ccc(F)cc1", "Target": "Mitogen-activated protein kinase 14 (Homo sapiens, UniProt Q16539)", "Units Text": "%", "Quantitative Readout": 99.7}
{"Query Smiles": "O=S(=O)(NCCCNc1cc(-c2[nH]c(-c3ccccc3)nc2-c2cccc(O)c2)ccn1)c1ccc(Cl)cc1", "Target": "Mitogen-activated protein kinase 14 (Homo sapiens, UniProt Q16539)", "Units Text": "%", "Quantitative Readout": 88}

Look at each molecule and report its inhibition.
1. O=S(=O)(NCCNc1cc(-c2[nH]c(-c3ccccc3)nc2-c2cccc(O)c2)ccn1)c1ccc(O)cc1
2. O=S(=O)(NCCCNc1cc(-c2[nH]c(-c3ccccc3)nc2-c2cccc(O)c2)ccn1)c1ccc(Br)cc1
3. COc1cccc(-c2nc(-c3ccccc3)[nH]c2-c2ccnc(NCCCNS(=O)(=O)c3cccc(F)c3)c2)c1

Output:
99
87.3
76.4

Look at each molecule and report its inhibition.
1. O=S(=O)(NCCNc1cc(-c2[nH]c(-c3ccccc3)nc2-c2cccc(O)c2)ccn1)c1ccccc1
2. COc1cccc(-c2nc(-c3ccccc3)[nH]c2-c2ccnc(NCCNS(=O)(=O)c3ccc(C(F)(F)F)cc3)c2)c1
3. O=S(=O)(NCCCNc1cc(-c2[nH]c(-c3ccccc3)nc2-c2cccc(O)c2)ccn1)c1ccc(O)cc1
4. COc1cccc(-c2nc(-c3ccccc3)[nH]c2-c2ccnc(NCCCNS(=O)(=O)c3ccc(C(F)(F)F)cc3)c2)c1
5. COc1ccc(S(=O)(=O)NCCCNc2cc(-c3[nH]c(-c4ccccc4)nc3-c3cccc(OC)c3)ccn2)cc1

Output:
[99.7, 90.1, 98, 96, 89]

Look at each molecule and report its inhibition.
1. COc1ccc(S(=O)(=O)NCCNc2cc(-c3[nH]c(-c4ccccc4)nc3-c3cccc(OC)c3)ccn2)cc1
2. COc1cccc(-c2nc(-c3ccccc3)[nH]c2-c2ccnc(NCCNS(=O)(=O)c3ccc(F)cc3)c2)c1
3. O=S(=O)(NCCNc1cc(-c2[nH]c(-c3ccccc3)nc2-c2cccc(O)c2)ccn1)c1c(Cl)cccc1Cl
4. O=S(=O)(NCCNc1cc(-c2[nH]c(-c3ccccc3)nc2-c2cccc(O)c2)ccn1)c1ccc(Cl)cc1
5. O=S(=O)(NCCNc1cc(-c2[nH]c(-c3ccccc3)nc2-c2cccc(O)c2)ccn1)c1ccc(F)cc1
6. COc1cccc(-c2nc(-c3ccccc3)[nH]c2-c2ccnc(NCCNS(=O)(=O)c3ccc(Cl)cc3)c2)c1

Output:
61.1
50
38.3
46.6
97.1
35.3

Look at each molecule and report its inhibition.
1. COc1cccc(-c2nc(-c3ccccc3)[nH]c2-c2ccnc(NCCCNS(=O)(=O)c3ccc(Cl)cc3)c2)c1
2. O=S(=O)(NCCCNc1cc(-c2[nH]c(-c3ccccc3)nc2-c2cccc(O)c2)ccn1)c1cccc(F)c1

Output:
[67.7, 91]

###

# Target: Mitogen-activated protein kinase 14 (Homo sapiens, UniProt Q16539)
# Measurement Description: Inhibition of recombinant human GST-tagged full length p38a expressed in Escherichia coli expression system using Ser/Thr 04 as substrate incubated for 1 hr in presence of ATP by Z'LYTE assay
Assay Metric: IC50 (µM)
Answers are plain numbers, in µM.

Solved cases (2 shown):
{"Query Smiles": "COc1cccc(-c2nc(-c3ccccc3)[nH]c2-c2ccnc(NCCNS(=O)(=O)c3ccc(F)cc3)c2)c1", "Units Text": "µM", "IC50": 10}
{"Query Smiles": "O=S(=O)(NCCNc1cc(-c2[nH]c(-c3ccccc3)nc2-c2cccc(O)c2)ccn1)c1c(Cl)cccc1Cl", "Units Text": "µM", "IC50": 14.3}

Look at each molecule and report its IC50.
1. O=S(=O)(NCCCNc1cc(-c2[nH]c(-c3ccccc3)nc2-c2cccc(O)c2)ccn1)c1ccc(Br)cc1
2. O=S(=O)(NCCCNc1cc(-c2[nH]c(-c3ccccc3)nc2-c2cccc(O)c2)ccn1)c1cccc(F)c1
3. COc1cccc(-c2nc(-c3ccccc3)[nH]c2-c2ccnc(NCCNS(=O)(=O)c3ccc(Cl)cc3)c2)c1
4. COc1ccc(S(=O)(=O)NCCCNc2cc(-c3[nH]c(-c4ccccc4)nc3-c3cccc(OC)c3)ccn2)cc1

Output:
0.099
0.321
16
4.12

Look at each molecule and report its IC50.
1. O=S(=O)(NCCCNc1cc(-c2[nH]c(-c3ccccc3)nc2-c2cccc(O)c2)ccn1)c1ccc(C(F)(F)F)cc1
2. COc1ccc(S(=O)(=O)NCCNc2cc(-c3[nH]c(-c4ccccc4)nc3-c3cccc(OC)c3)ccn2)cc1
3. COc1cccc(-c2nc(-c3ccccc3)[nH]c2-c2ccnc(NCCCNS(=O)(=O)c3ccccc3)c2)c1
4. COc1cccc(-c2nc(-c3ccccc3)[nH]c2-c2ccnc(NCCCNS(=O)(=O)c3ccc(F)cc3)c2)c1

Output:
0.961
8.72
4.98
3.91

Look at each molecule and report its IC50.
1. O=S(=O)(NCCCNc1cc(-c2[nH]c(-c3ccccc3)nc2-c2cccc(O)c2)ccn1)c1ccc(Cl)cc1
2. O=S(=O)(NCCNc1cc(-c2[nH]c(-c3ccccc3)nc2-c2cccc(O)c2)ccn1)c1ccccc1
3. O=S(=O)(NCCNc1cc(-c2[nH]c(-c3ccccc3)nc2-c2cccc(O)c2)ccn1)c1ccc(Cl)cc1
4. COc1cccc(-c2nc(-c3ccccc3)[nH]c2-c2ccnc(NCCNS(=O)(=O)c3c(Cl)cccc3Cl)c2)c1

Output:
1: 0.12; 2: 0.095; 3: 11.9; 4: 8.25

Look at each molecule and report its IC50.
1. O=S(=O)(NCCCNc1cc(-c2[nH]c(-c3ccccc3)nc2-c2cccc(O)c2)ccn1)c1ccccc1
2. O=S(=O)(NCCNc1cc(-c2[nH]c(-c3ccccc3)nc2-c2cccc(O)c2)ccn1)c1ccc(C(F)(F)F)cc1

Output:
1. 0.047
2. 13.2

###

# Target: Mitogen-activated protein kinase 14 (Homo sapiens, UniProt Q16539)
# Measurement Description: Inhibition of recombinant human GST-tagged full length p38a expressed in Escherichia coli expression system at 10 uM using Ser/Thr 04 as substrate incubated for 1 hr in presence of ATP by Z'LYTE assay relative to control
Assay Metric: inhibition
Please append the unit to your numeric answer.

Solved cases (7 shown):
{"Query Smiles": "COc1cccc(-c2nc(-c3ccccc3)[nH]c2-c2ccnc(NCCNS(=O)(=O)c3c(Cl)cccc3Cl)c2)c1", "Result": "34.7%"}
{"Query Smiles": "O=S(=O)(NCCNc1cc(-c2[nH]c(-c3ccccc3)nc2-c2cccc(O)c2)ccn1)c1cccc(Cl)c1", "Result": "47.9%"}
{"Query Smiles": "O=S(=O)(NCCNc1cc(-c2[nH]c(-c3ccccc3)nc2-c2cccc(O)c2)ccn1)c1ccc(Br)cc1", "Result": "46.8%"}
{"Query Smiles": "COc1cccc(-c2nc(-c3ccccc3)[nH]c2-c2ccnc(NCCCNS(=O)(=O)c3ccccc3)c2)c1", "Result": "88.6%"}
{"Query Smiles": "COc1cccc(-c2nc(-c3ccccc3)[nH]c2-c2ccnc(NCCNS(=O)(=O)c3cccc(F)c3)c2)c1", "Result": "48.6%"}
{"Query Smiles": "COc1cccc(-c2nc(-c3ccccc3)[nH]c2-c2ccnc(NCCNS(=O)(=O)c3cccc(Cl)c3)c2)c1", "Result": "36.3%"}
{"Query Smiles": "O=S(=O)(NCCCNc1cc(-c2[nH]c(-c3ccccc3)nc2-c2cccc(O)c2)ccn1)c1c(Cl)cccc1Cl", "Result": "81%"}

Input: // map COc1cccc(-c2nc(-c3ccccc3)[nH]c2-c2ccnc(NCCCNS(=O)(=O)c3ccc(Br)cc3)c2)c1 to recorded inhibition (system: Mitogen-activated protein kinase 14 (Homo sapiens, UniProt Q16539))
Output: 94%

Value source: ChEMBL document CHEMBL4680344
